Listed here are compounds together with their documented EC50.
- Test system: KB
- METHOD DESCRIPTION: Cytotoxicity against human KB cells
- Format: functional
- RUN CONDITIONS: read-out: ED50 (the source's name)

{"COMPOUND": "C=C[C@H]1CN2CC[C@H]1C[C@H]2[C@H](O)c1ccnc2ccc(OC)cc12 [QUININE]", "READING UNIT": "µg/mL", "CENSORING QUALIFIER": ">", "EC50": 20}
{"COMPOUND": "CCC[C@@H](O)C1=C(Br)[C@](CI)(OC)OC1=O", "READING UNIT": "µg/mL", "CENSORING QUALIFIER": ">", "EC50": 20}
{"COMPOUND": "CCN(CC)CCCC(C)Nc1ccnc2cc(Cl)ccc12 (stereo not given) [CHLOROQUINE]", "READING UNIT": "µg/mL", "CENSORING QUALIFIER": "=", "EC50": 17.4}
{"COMPOUND": "OC(c1cc(C(F)(F)F)nc2c(C(F)(F)F)cccc12)C1CCCCN1 (stereo not given) [MEFLOQUINE]", "READING UNIT": "µg/mL", "CENSORING QUALIFIER": "=", "EC50": 3.5}
{"COMPOUND": "CCCCCCC(=O)C(Br)=C(Br)Br", "READING UNIT": "µg/mL", "CENSORING QUALIFIER": ">", "EC50": 20}
{"COMPOUND": "CCC[C@@H](OC(C)=O)C1=C(Br)[C@@](CI)(OC)OC1=O", "READING UNIT": "µg/mL", "CENSORING QUALIFIER": "=", "EC50": 2.4}
{"COMPOUND": "C[C@@H]1CC[C@H]2[C@@H](C)C(=O)O[C@@H]3O[C@@]4(C)CC[C@@H]1[C@]32OO4 [ARTEMISININ]", "READING UNIT": "µg/mL", "CENSORING QUALIFIER": ">", "EC50": 20}
{"COMPOUND": "CCC[C@@H](OC(C)=O)C1=C(Br)[C@@](OC)(C(Br)Br)OC1=O", "READING UNIT": "µg/mL", "CENSORING QUALIFIER": "=", "EC50": 4.1}
{"COMPOUND": "CCC[C@@H](OC(C)=O)C1=C(Br)[C@](C)(OC)OC1=O", "READING UNIT": "µg/mL", "CENSORING QUALIFIER": "=", "EC50": 3.9}
{"COMPOUND": "CCC[C@@H](O)C1=C(Br)/C(=C/I)OC1=O", "READING UNIT": "µg/mL", "CENSORING QUALIFIER": "=", "EC50": 0.4}
